Exercise: state measured rat_CLt for each of the compounds provided.
- testName: Evaluation of total body clearance (CLtot), intravenous administration
- Format: in vivo, Sprague-Dawley (SD)
- measurementConditions: rat (SD), intravenous administration 0.5-10 mg/kg; CLtot = dose/AUC
Give bare numbers, in mL/min/kg.

Please state rat_CLt for every compound in the list that follows.
1. CC1(C)CCc2sc(NC(=O)c3ccccc3CNc3ccc(CC(NC(=O)OC4COC5OCCC45)C(O)CN(CC4CCCC4)S(=O)(=O)c4ccc5ncsc5c4)cc3)c(C(=O)O)c2C1 (stereo not shown) [Compound I-859]
2. COc1ccc(S(=O)(=O)N(CC(C)C)CC(O)C(Cc2ccc(NCc3cc(O)ccc3-c3sc4c(c3C(=O)O)CC(C)(C)CC4)cc2)NC(=O)OC2COC3(C)OCCC23)cc1 (stereo not shown) [Compound I-561]
3. CC(C)CN(CC(O)C(Cc1ccc(CCc2sc3c(c2C(=O)O)CC(C)(C)CC3)cc1)NC(=O)OC1COC2(C)OCCC12)S(=O)(=O)c1ccc(N)cc1 (stereo not shown) [Compound I-43]
4. COc1ccc(S(=O)(=O)N(CC(C)C)CC(O)C(Cc2ccc(OCc3ccccc3-c3oc4c(c3C(=O)O)CC(C)(C)CC4)cc2)NC(=O)OC2COC3(C)OCCC23)cc1 (stereo not shown) [Compound I-49]
5. COc1ccc(S(=O)(=O)N(CC(C)C)CC(O)C(Cc2ccc(OCC3=C(c4sc5c(c4C(=O)O)CC(C)(C)CC5)CCCC3)cc2)NC(=O)OC2COC3(C)OCCC23)cc1 (stereo not shown) [Compound I-243]

[A]
0.2
4.48
3.19
2.23
0.477
